# Tested on: E. coli TESEC Mtb Alr
# procedure-text: growth (OD600 after 10 h); higher = more growth (less inhibition)
# condition-context: arabinose 100000 nM; compound 0.1 mM; raw OD600 reference: median of DMSO wells 0.201, cell-free background 0.041
Counter-ions that a name gives are not always drawn.
Record form. Attribute: growth. Fill in for each entry.
One number for each entry.

>>> df
                                   compound            system_name  reported_result
0  OC(Cn1cncn1)(Cn1cncn1)c1ccc(F)cc1F [Fluconazole]  E. coli TESEC Mtb Alr            0.187
1  CC(CN(C)C)C(C)(O)Cc1ccc(Cl)cc1 (centres undefined) [Clobutinol hydrochloride]  E. coli TESEC Mtb Alr            0.197

Kindly give each listed record's growth.
1. CN1CCN(C2=Nc3cc(Cl)ccc3Nc3ccccc32)CC1 [Clozapine]
2. O=C(O)c1cccnc1Nc1cccc(C(F)(F)F)c1 [Niflumic acid]
3. CCCCC(=O)N(Cc1ccc(-c2ccccc2-c2nnn[nH]2)cc1)[C@H](C(=O)O)C(C)C [Valsartan]

Output line:
1: 0.178; 2: 0.145; 3: 0.213

Kindly give each listed record's growth.
1. OC(CCN1CCCC1)(c1ccccc1)C1CCCCC1 (centres undefined) [Procyclidine hydrochloride]
2. NC1CCN(c2nc3c(cc2F)c(=O)c(C(=O)O)cn3-c2ccc(F)cc2F)C1 (centres undefined) [Tosufloxacin hydrochloride]
3. C[C@]12CC[C@H]3C(=CCc4cc(O)ccc43)[C@@H]1CCC2=O [Equilin]

Output line:
1. 0.194
2. 0.0552
3. 0.154

Input line: Request the reported growth associated with COc1cc2ncnc(Nc3ccc(F)c(Cl)c3)c2cc1OCCCN1CCOCC1 [Gefitinib]
Output line: 0.198
